Recorded values, source patent US20240025862A1.

test system: Alopecurus myosuroides (ALOMY); test: Post-emergence herbicidal action, greenhouse pot test (also comparative test C); type: in vivo; settings: 5 g/ha, rated visually after about 3 weeks vs untreated controls, 100% = plants have died
Recorded metric: Post-emergence action at 5 g/ha against ALOMY in % (%)
A number alone suffices; assume %.

Cn1c(C(F)(F)F)cc(=O)n(-c2cc(Oc3ccccc3OCC(=O)OCCOC(F)(F)F)c([N+](=O)[O-])cc2F)c1=O: 80
Cn1c(C(F)(F)F)cc(=O)n(-c2cc(Oc3ccccc3OCC(=O)OCC[N+](=O)[O-])c(Br)cc2F)c1=O: 80
Cn1c(C(F)(F)F)cc(=O)n(-c2cc(Oc3ccccc3OCC(=O)OCc3cccnn3)c(Br)cc2F)c1=O: 90
Cn1c(C(F)(F)F)cc(=O)n(-c2cc(Oc3ccccc3OCC(=O)OCCOC(F)(F)F)c(Cl)cc2F)c1=O: 100
COCCOCCOC(=O)COc1cccc(F)c1Oc1cc(-n2c(=O)cc(C(F)(F)F)n(C)c2=O)c(F)cc1Cl: 80
COCCOCCOC(=O)COc1ccccc1Sc1cc(-n2c(=O)cc(C(F)(F)F)n(C)c2=O)c(F)cc1Cl: 90

Kindly consider the entry below.
Which Post-emergence action at 5 g/ha against ALOMY in % is reported for this molecule? `Cn1c(C(F)(F)F)cc(=O)n(-c2cc(Oc3ccccc3OCC(=O)OCc3ccccn3)c(C#N)cc2F)c1=O`
100
